B1: EFHC1 (parent)
chain: NIYYYLEDDSMSVIEPVVENSGIL

- Variants of: B1
- assay method text: protein stability index of a GFP-peptide fusion (GPS, HEK-293T) (PSI 1-6); higher = more stable;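 note: lentivirally expressed fusions sorted by FACS into six bins by GFP to DsRed ratio, PSI derived from sequencing read proportions per bin multiplied by bin number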
- condition: c terminus: a fixed tail appended
readout label: protein stability index
The response must contain the number and no unit.

Supply protein stability index value. Item: P16C 2.54

Supply protein stability index value. Item: N20S 2.13

Supply protein stability index value. Item: Y5N 2.78

Supply protein stability index value. Item: P16G 1.92

Supply protein stability index value. Item: I14G 2.51

Supply protein stability index value. Item: P16A 2.38

Supply protein stability index value. Item: V13Q 2.35

Supply protein stability index value. Item: I14H 2.45

Supply protein stability index value. Item: E19A 1.59

Supply protein stability index value. Item: S10G 2.08

Supply protein stability index value. Item: Y5C 2.45

Supply protein stability index value. Item: D9S 1.68

Supply protein stability index value. Item: V13D 2.86

Supply protein stability index value. Item: I23K 2.53

Supply protein stability index value. Item: P16I 2.75

Supply protein stability index value. Item: P16W 2.61

Supply protein stability index value. Item: Y4A 2.12

Supply protein stability index value. Item: E15D 1.96

Supply protein stability index value. Item: L6V 2.23

Supply protein stability index value. Item: Y5K 3.41

Supply protein stability index value. Item: G22L 1.51

Supply protein stability index value. Item: V13F 2.16

Supply protein stability index value. Item: S21K 2.12

Supply protein stability index value. Item: D8E 1.94

Supply protein stability index value. Item: N1H 1.74

Supply protein stability index value. Item: E7F 1.13

Supply protein stability index value. Item: S21V 1.6

Supply protein stability index value. Item: I2E 3.79

Supply protein stability index value. Item: G22I 1.81

Supply protein stability index value. Item: Y4F 1.85

Supply protein stability index value. Item: S10D 2.36

Supply protein stability index value. Item: V13R 1.81

Supply protein stability index value. Item: Y4P 4.01

Supply protein stability index value. Item: N1S 2.19

Supply protein stability index value. Item: I23Q 2.78

Supply protein stability index value. Item: D9E 2.11

Supply protein stability index value. Item: N20F 1.48

Supply protein stability index value. Item: Y3M 2.17

Supply protein stability index value. Item: Y3L 2.15

Supply protein stability index value. Item: V18P 2.38

Supply protein stability index value. Item: Y3V 2.38

Supply protein stability index value. Item: D8R 2.35

Supply protein stability index value. Item: L6G 3.65

Supply protein stability index value. Item: I14F 1.98

Supply protein stability index value. Item: S21I 1.48

Supply protein stability index value. Item: N1C 1.54

Supply protein stability index value. Item: Y4M 2.18

Supply protein stability index value. Item: D9K 1.83

Supply protein stability index value. Item: S10C 1.71

Supply protein stability index value. Item: V13G 2.42

Supply protein stability index value. Item: M11P 3.39

Supply protein stability index value. Item: Y4W 2.99

Supply protein stability index value. Item: V17G 1.95

Supply protein stability index value. Item: V13H 2.24

Supply protein stability index value. Item: G22D 2.44

Supply protein stability index value. Item: E15N 2.79

Supply protein stability index value. Item: P16K 2.58

Supply protein stability index value. Item: S12N 2.08

Supply protein stability index value. Item: Y5E 3.62

Supply protein stability index value. Item: E7Y 2.31

Supply protein stability index value. Item: Y4N 2.35

Supply protein stability index value. Item: I2K 3.44

Supply protein stability index value. Item: E19L 1.42

Supply protein stability index value. Item: V17N 1.76

Supply protein stability index value. Item: N1Q 2.83

Supply protein stability index value. Item: V17K 2.31

Supply protein stability index value. Item: S10H 2.09

Supply protein stability index value. Item: S12Y 1.2

Supply protein stability index value. Item: Y3K 2.72

Supply protein stability index value. Item: L24Q 2.36

Supply protein stability index value. Item: E15G 1.6

Supply protein stability index value. Item: S10F 2.3

Supply protein stability index value. Item: I23T 3.04

Supply protein stability index value. Item: P16F 2.73

Supply protein stability index value. Item: Y5R 3.35

Supply protein stability index value. Item: Y3E 3.76

Supply protein stability index value. Item: D8V 3.11

Supply protein stability index value. Item: L6C 2.24

Supply protein stability index value. Item: Y4C 2.31

Supply protein stability index value. Item: G22Y 1.5

Supply protein stability index value. Item: S10Y 1.9

Supply protein stability index value. Item: Y5P 3.83

Supply protein stability index value. Item: P16E 2.37

Supply protein stability index value. Item: S21F 1.45

Supply protein stability index value. Item: I14C 2.28

Supply protein stability index value. Item: S21P 2.4

Supply protein stability index value. Item: M11L 2.07

Supply protein stability index value. Item: I2C 2.29

Supply protein stability index value. Item: E7K 1.91

Supply protein stability index value. Item: E19G 1.74

Supply protein stability index value. Item: N20E 2.46
